Attribution: ChEMBL document CHEMBL1667760

Tested on: PC-3
procedure.text: Cytotoxicity against human PC3 cells after 48 hrs by sulforhodamine B assay
Format: functional
run.conditions: PC-3, 48 h, read-out: GI50
Counter-ions that a name gives are not always drawn.
readout.kind: GI50 (nM)
Give bare numbers, in nM.

Guide cases for GI50, answers given:
COc1cccc2c1C(=O)c1c(O)c3c(c(O)c1C2=O)C[C@@](O)(C(=O)CO)C[C@@H]3O[C@H]1C[C@H](N)[C@H](O)[C@H](C)O1 [DOXORUBICIN HYDROCHLORIDE]    160
COc1ccc(C2NC(=O)c3ccccc3N2)cc1OCCCCOc1c(OC)cc(-c2cc(-c3cc(OC)c(OC)c(OC)c3)no2)cc1OC (stereo not drawn)    2000
COc1cc(C2NC(=O)c3ccccc3N2)ccc1OCCCCOc1c(OC)cc(C2=NOC(c3cc(OC)c(OC)c(OC)c3)C2)cc1OC (stereo not drawn)    460
COc1ccc(-c2cc(-c3cc(OC)c(OC)c(OC)c3)on2)cc1OCCCCOc1cc(C2NC(=O)c3ccccc3N2)ccc1OC (stereo not drawn)    2100
COc1cc(C2NC(=O)c3ccccc3N2)ccc1OCCCOc1c(OC)cc(C2=NOC(c3cc(OC)c(OC)c(OC)c3)C2)cc1OC (stereo not drawn)    520
COc1cc(C2NC(=O)c3ccccc3N2)ccc1OCCCCCOc1cc(C2CC(c3cc(OC)c(OC)c(OC)c3)=NO2)ccc1OC (stereo not drawn)    2400
COc1cc(C2NC(=O)c3ccccc3N2)ccc1OCCCOc1cc(C2CC(c3cc(OC)c(OC)c(OC)c3)=NO2)ccc1OC (stereo not drawn)    2500

Field: next compound
GI50 of COc1cc(C2NC(=O)c3ccccc3N2)ccc1OCCCCOc1cc(C2CC(c3cc(OC)c(OC)c(OC)c3)=NO2)ccc1OC (stereo not drawn) on PC-3?
2800
